Here the recorded composite z-score is given for each entry.
# target-or-system: Neurogenic locus notch homolog protein 2 (Homo sapiens) (UniProt Q04721)
# Sequence (Q04721 whole entry, looked up): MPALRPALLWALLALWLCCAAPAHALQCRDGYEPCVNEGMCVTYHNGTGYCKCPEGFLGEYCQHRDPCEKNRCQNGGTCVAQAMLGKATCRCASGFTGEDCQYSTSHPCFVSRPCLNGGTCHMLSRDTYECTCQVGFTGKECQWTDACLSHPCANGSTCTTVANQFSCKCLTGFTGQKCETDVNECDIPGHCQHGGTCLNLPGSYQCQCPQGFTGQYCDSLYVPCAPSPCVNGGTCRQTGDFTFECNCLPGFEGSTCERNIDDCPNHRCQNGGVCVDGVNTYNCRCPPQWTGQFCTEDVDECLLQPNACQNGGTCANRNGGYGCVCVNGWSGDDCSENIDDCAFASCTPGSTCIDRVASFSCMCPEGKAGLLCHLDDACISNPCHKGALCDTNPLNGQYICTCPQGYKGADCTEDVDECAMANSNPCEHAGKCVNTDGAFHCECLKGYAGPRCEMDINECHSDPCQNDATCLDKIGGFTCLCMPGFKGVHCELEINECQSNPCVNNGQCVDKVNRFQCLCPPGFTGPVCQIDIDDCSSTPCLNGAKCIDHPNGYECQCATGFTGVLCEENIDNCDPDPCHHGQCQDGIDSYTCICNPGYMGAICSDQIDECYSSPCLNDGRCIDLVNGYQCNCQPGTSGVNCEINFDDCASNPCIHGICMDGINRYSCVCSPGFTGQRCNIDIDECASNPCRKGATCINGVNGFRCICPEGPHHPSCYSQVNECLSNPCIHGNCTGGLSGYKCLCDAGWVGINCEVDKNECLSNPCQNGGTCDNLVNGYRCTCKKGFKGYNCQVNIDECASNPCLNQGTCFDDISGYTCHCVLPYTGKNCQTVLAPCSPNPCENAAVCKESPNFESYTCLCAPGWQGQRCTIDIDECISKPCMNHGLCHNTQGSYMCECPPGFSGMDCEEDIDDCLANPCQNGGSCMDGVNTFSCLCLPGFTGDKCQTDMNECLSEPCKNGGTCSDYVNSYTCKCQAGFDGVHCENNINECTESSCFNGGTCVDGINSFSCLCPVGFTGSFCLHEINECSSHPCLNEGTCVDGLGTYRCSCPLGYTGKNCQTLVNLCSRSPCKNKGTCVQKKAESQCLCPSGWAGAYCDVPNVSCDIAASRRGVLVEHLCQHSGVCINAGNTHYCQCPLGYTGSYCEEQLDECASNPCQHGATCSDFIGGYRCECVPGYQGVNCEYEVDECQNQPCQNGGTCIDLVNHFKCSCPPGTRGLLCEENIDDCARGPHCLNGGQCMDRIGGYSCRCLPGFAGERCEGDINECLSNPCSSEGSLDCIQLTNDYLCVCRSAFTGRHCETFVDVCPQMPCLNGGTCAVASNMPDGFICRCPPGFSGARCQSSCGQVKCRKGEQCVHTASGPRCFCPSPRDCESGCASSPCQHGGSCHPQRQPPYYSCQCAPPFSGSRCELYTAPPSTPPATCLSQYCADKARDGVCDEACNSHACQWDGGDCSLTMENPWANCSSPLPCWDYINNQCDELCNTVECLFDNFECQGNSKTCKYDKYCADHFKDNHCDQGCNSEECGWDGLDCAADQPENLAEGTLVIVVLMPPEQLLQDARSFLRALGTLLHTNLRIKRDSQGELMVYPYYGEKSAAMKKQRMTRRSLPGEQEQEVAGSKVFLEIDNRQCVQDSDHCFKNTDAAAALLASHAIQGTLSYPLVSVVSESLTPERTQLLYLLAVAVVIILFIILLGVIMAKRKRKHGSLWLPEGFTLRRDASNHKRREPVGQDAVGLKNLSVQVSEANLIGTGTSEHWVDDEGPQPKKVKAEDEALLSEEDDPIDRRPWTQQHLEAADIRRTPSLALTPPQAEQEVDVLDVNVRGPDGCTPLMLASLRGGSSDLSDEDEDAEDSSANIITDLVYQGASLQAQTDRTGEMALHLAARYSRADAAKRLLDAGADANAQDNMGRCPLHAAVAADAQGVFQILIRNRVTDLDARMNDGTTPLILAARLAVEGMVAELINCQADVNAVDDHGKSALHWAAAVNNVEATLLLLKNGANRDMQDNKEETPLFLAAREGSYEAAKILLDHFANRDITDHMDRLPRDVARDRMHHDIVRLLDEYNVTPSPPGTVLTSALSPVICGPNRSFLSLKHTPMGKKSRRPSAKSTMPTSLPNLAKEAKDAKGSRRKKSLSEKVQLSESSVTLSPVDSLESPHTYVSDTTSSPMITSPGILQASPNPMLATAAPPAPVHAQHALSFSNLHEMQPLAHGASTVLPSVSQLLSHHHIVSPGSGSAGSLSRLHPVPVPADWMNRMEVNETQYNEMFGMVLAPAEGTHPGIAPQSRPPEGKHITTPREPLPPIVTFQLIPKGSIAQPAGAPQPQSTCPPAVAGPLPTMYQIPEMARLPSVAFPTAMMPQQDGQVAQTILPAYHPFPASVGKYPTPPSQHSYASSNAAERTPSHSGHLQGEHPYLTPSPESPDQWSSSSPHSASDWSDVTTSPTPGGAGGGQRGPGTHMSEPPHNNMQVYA
# procedure-details: Notch2 binders on small-molecule microarrays, primary screen, biochemical, small-molecule microarray, 635 nm fluorescence, stem cell growth factors (AID 1073)
# condition-label: Notch2 binding, higher = more signal
Keep it simple and answer with nothing but the number.

O=C1O[C@@H](c2ccccc2)[C@@H](c2ccccc2)N2[C@@H](c3ccccc3OCCO)[C@]3(C(=O)Nc4ccc(C#CC5=CCCCC5)cc43)[C@@H](C(=O)O)[C@H]12 ... 1.44
Cc1ccc(N2C(=O)c3ccccc3[C@](C)(C(=O)O)[C@@H]2c2ccc(CO)cc2)nc1 ... -1.52
COc1cc([C@@H]2N[C@H](C(=O)O)Cc3c2[nH]c2ccccc32)cc(OC)c1OC ... 0.507
COCCCNC(=O)[C@@H]1c2ccccc2C(=O)N(CC23CC4CC(CC(C4)C2)C3)[C@H]1c1ccc(CO)cc1 ... 1.46
COCCOC(=O)N1C(=O)[C@@]2(c3cc(C#CCCO)ccc31)[C@H](c1ccc(OCCO)cc1)N1[C@H](c3ccccc3)[C@H](c3ccccc3)OC(=O)[C@H]1[C@@H]2C(=O)NC[C@H](O)c1ccccc1 ... 1.4

// composite z-score lookup, key: "CCCNC(=O)[C@@]1(Sc2ccc(C)cc2)CC(=O)N(Cc2ccccc2Cl)[C@@H]1c1ccc(CO)cc1"
0.653

Which composite z-score value is on record for C=CC[C@]1(C(=O)NCC(O)CO)N=C(c2ccc(OCCCO)cc2)O[C@H]1c1ccccc1 (stereo partly specified) ?
-0.502

I would be grateful if you could share the reported composite z-score for C=C(C)[C@@H]1CC=C(C(O)C2C=CC3C(=O)NC(=O)C3N2Nc2ccccn2)CC1 (stereo partly specified) .
1.61
